System: isolated rings of the saphenous artery of rabbits
Assay summary: Vessel-relaxing action in vitro, phenylephrin-induced contractions of isolated saphenous artery rings
Design: species or system rabbit
Assay conditions: Oryctolagus cuniculus; contraction induced by 3×10^−8 g of phenylephrin/ml; concentration reducing control contraction by 50%
Attribute measured: IC50 (nM)

Molecule: CC(C)(C)NCc1cc(Nc2ccc(Oc3ccnc4[nH]ccc34)c(F)c2)nc(N)n1
Attribute measured: IC50
Result value: 150

(a) Nc1nc(Nc2ccc(Oc3ccc4[nH]ncc4c3)c(F)c2)cc(N2C[C@H]3CCCN[C@H]3C2)n1
(b) Nc1nc(Nc2ccc(Oc3ccc4[nH]ncc4c3)c(F)c2)cc(-c2ccncc2)n1
(c) Cc1n[nH]c2cccc(Oc3ccc(Nc4cc(-c5ccncc5)nc(N)n4)cc3F)c12
(d) Nc1nc(Nc2ccc(Oc3ccc4[nH]ncc4c3)c(Cl)c2)cc(N2C[C@H]3CCCN[C@H]3C2)n1
Exercise: Descending sort on IC50 required. In your reply, arrange the labels in the requested order.
Key: c, d, b, a
(c: 6800 nM, d: 2000 nM, b: 1020 nM, a: 350 nM)

* * *

Tested target: recombinant Rho kinase II (ROKα) (Homo sapiens)
Construct: purchased Upstate Biotechnology
Sequence (O75116 whole entry): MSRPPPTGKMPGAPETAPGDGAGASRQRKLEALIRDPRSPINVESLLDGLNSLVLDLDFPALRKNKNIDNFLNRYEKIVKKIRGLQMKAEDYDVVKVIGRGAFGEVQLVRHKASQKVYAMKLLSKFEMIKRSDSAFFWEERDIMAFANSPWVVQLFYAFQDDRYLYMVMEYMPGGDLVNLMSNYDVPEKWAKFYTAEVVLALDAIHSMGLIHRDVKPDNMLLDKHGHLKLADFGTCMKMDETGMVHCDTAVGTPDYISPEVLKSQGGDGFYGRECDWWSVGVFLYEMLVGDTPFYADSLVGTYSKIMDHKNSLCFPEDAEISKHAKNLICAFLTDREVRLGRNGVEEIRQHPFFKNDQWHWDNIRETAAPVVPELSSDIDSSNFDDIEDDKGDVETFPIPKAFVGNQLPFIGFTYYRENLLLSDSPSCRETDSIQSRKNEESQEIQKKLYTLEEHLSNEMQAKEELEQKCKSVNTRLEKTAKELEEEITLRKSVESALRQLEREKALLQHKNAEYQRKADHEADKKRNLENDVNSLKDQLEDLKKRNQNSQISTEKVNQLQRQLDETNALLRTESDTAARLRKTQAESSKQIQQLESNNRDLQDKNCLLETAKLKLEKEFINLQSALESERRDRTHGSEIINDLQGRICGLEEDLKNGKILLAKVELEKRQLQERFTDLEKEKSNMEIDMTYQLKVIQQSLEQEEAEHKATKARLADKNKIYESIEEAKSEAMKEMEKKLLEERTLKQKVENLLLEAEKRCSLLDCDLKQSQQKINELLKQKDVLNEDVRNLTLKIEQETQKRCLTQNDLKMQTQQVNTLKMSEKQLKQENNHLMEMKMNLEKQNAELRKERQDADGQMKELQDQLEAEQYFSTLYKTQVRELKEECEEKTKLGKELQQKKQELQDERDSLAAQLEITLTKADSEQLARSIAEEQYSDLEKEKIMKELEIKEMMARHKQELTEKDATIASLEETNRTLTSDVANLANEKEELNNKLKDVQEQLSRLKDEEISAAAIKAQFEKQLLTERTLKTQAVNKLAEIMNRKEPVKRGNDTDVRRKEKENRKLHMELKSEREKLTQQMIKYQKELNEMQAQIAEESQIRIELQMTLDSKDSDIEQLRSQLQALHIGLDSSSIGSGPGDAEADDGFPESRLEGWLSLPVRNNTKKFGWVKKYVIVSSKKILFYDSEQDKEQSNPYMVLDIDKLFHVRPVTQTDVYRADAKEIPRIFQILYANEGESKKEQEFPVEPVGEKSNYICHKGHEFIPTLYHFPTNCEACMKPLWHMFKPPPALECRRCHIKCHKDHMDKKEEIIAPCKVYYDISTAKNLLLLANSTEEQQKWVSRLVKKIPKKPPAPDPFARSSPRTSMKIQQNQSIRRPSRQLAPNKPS
Assay summary: Inhibition of recombinant Rho kinase II (ROKα), 33P uptake into S6 substrate peptide
Assay type: biochemical
Assay conditions: 33P-ATP, S6 phosphate-acceptor peptide, 20 min at 37° C., vs solvent control
pIC50: −log10 of the molar value.
Attribute measured: pIC50

Compound: Nc1nc(Nc2ccc(Oc3ccc4[nH]ncc4c3)c(Cl)c2)cc(N[C@@H]2CCCC[C@H]2N)n1
Attribute measured: pIC50
Result value: 7.70

Compound: Nc1nc(Nc2ccc(Oc3ccc4[nH]ncc4c3)c(F)c2)cc(N2C[C@H]3CCCN[C@H]3C2)n1
Attribute measured: pIC50
Result value: 8.22

Compound: Nc1nc(Nc2ccc(Oc3ccc4[nH]ncc4c3)c(Cl)c2)cc(-c2ccncc2)n1
Attribute measured: pIC50
Result value: 7.52

Compound: Nc1nc(Nc2ccc(Oc3ccc4[nH]ncc4c3)c(F)c2)cc(-c2ccncc2)n1
Attribute measured: pIC50
Result value: 7.70

Compound: Nc1nc(Nc2ccc(Oc3ccc4[nH]ncc4c3)c(F)c2)cc(N2C[C@@H]3CCCN[C@@H]3C2)n1
Attribute measured: pIC50
Result value: 7.26

Compound: Nc1nc(Nc2ccc(Oc3ccc4[nH]ncc4c3)c(Cl)c2)cc(N2C[C@H]3CCCN[C@H]3C2)n1
Attribute measured: pIC50
Result value: 8.05

(1) Nc1nc(Nc2ccc(Oc3ccc4[nH]ncc4c3)c(F)c2)cc(-c2ccccc2)n1
(2) CN(CCO)CC1CCN(c2cc(Nc3ccc(Oc4ccnc5[nH]ccc45)c(F)c3)nc(N)n2)C1 (stereo not drawn)
Exercise: Please indicate which item has the smaller measured pIC50: 1 versus 2 Response format: the label of the selected entry.
Key: 1
(1: 7.37, 2: 9.00)

* * *

System: isolated rings of the saphenous artery of rabbits
Assay summary: Vessel-relaxing action in vitro, phenylephrin-induced contractions of isolated saphenous artery rings
Set-up: species or system rabbit
Assay conditions: Oryctolagus cuniculus; contraction induced by 3×10^−8 g of phenylephrin/ml; concentration reducing control contraction by 50%
Attribute measured: IC50 (µM)

Compound: Nc1nc(Nc2ccc(Oc3ccc4[nH]ncc4c3)c(F)c2)cc(N[C@@H]2CCCC[C@H]2N)n1
IC50, µM: 6.9

(a) Nc1nc(Nc2ccc(Oc3ccc4cn[nH]c4c3)c(F)c2)cc(-c2ccncc2)n1
(b) CN(CCO)CC1CCN(c2cc(Nc3ccc(Oc4ccnc5[nH]ccc45)c(F)c3)nc(N)n2)C1 (stereo not drawn)
(c) Nc1nc(CN2CCCCC2)cc(Nc2ccc(Oc3ccnc4[nH]ccc34)c(F)c2)n1
(d) Nc1nc(Nc2ccc(Oc3ccc4[nH]ncc4c3)c(Cl)c2)cc(-c2ccncc2)n1
(e) Nc1nc(Nc2ccc(Oc3ccc4[nH]ncc4c3)c(F)c2)cc(N2C[C@@H]3CCCN[C@@H]3C2)n1
Exercise: Rank entries according to their IC50, from the largest number down. Answer format: the labels, in the requested order.
Key: a, d, e, b, c
(a: 6.7 µM, d: 4.33 µM, e: 2.7 µM, b: 0.26 µM, c: 0.08 µM)
